Values were extracted from patent US10800813.

# MEASURED_ON: T1, human plasma Kallikrein (human, UniProt P03952 20-638, limits assumed)
# T1 construct: also called hPK; human PK
# PROCEDURE_DETAILS: enzyme inhibition assay
Numbered stars: 1 amine (or outer) side, 2 acyl side, 3 side chain; on linkers, the order of the positions; unused ones are H or OH. Bridge positions count the residues as written; N and C are the ends. TBMB = c1c(C[*:1])cc(C[*:3])cc1C[*:2]
ATTRIBUTE_MEASURED: Ki (nM)
Please reply with the bare figure in nM and do not write the unit itself.

BINDER	UNIT_SPEC	Ki
Ac-CSWPARCLHQDLC-NH2 (linker 1-7-13 via TBMB; SMILES CC(=O)N[C@H]1CSCc2cc3cc(c2)CSC[C@H](NC(=O)[C@H](CCCNC(=N)N)NC(=O)[C@H](C)NC(=O)[C@@H]2CCCN2C(=O)[C@H](Cc2c[nH]c4ccccc24)NC(=O)[C@H](CO)NC1=O)C(=O)N[C@@H](CC(C)C)C(=O)N[C@@H](Cc1c[nH]cn1)C(=O)N[C@@H](CCC(N)=O)C(=O)N[C@@H](CC(=O)O)C(=O)N[C@@H](CC(C)C)C(=O)N[C@H](C(N)=O)CSC3, also called Ac-(06-34-18) wildtype; Ac-(06-34-18) WPAR) [Ac-06-34-18(TMB)-NH2]	nM	0.17

# input for lookup
Return value of Ki for input Ac-CSFPYRCLHQDLC-NH2 (linker 1-7-13 via TBMB; SMILES CC(=O)N[C@H]1CSCc2cc3cc(c2)CSC[C@H](NC(=O)[C@H](CCCNC(=N)N)NC(=O)[C@H](Cc2ccc(O)cc2)NC(=O)[C@@H]2CCCN2C(=O)[C@H](Cc2ccccc2)NC(=O)[C@H](CO)NC1=O)C(=O)N[C@@H](CC(C)C)C(=O)N[C@@H](Cc1c[nH]cn1)C(=O)N[C@@H](CCC(N)=O)C(=O)N[C@@H](CC(=O)O)C(=O)N[C@@H](CC(C)C)C(=O)N[C@H](C(N)=O)CSC3, also called Ac-(06-34-18) FPYR; Ac-(06-34-18) Phe2 Tyr4) [Ac-06-34-18(TMB)-NH2 Phe2Tyr4] , no commentary.
0.46
